- Measured Target: Cathepsin K (Homo sapiens, UniProt P43235)
- Sequence (P43235 whole entry): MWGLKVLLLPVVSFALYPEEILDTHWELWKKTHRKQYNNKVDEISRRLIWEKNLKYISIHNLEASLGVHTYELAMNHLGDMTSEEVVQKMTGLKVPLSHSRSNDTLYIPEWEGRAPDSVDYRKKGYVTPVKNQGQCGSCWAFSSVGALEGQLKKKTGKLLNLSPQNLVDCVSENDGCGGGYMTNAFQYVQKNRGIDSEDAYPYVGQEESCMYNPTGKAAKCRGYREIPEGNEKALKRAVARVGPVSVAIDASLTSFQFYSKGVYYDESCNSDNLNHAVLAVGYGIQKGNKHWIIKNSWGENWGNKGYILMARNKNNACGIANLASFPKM
Observable: IC50 (nM)

(A) CCCC[C@H](NC(=O)O[C@H](CCc1ccccc1)C(C)(C)C)C(=O)C(=O)N[C@H](C)c1ccccc1
(B) CCCC[C@H](NC(=O)O[C@@H](CCCc1ccccc1)C(C)(C)C)C(=O)C(=O)N[C@H](C)c1ccccc1
(C) CCCC[C@H](NC(=O)OC(C1CCCC1)C1CCCC1)C(=O)C(=O)N[C@H](C)c1ccccc1
(D) CCCC[C@H](NC(=O)OC(CCC)CCC)C(=O)C(=O)N[C@H](C)c1ccccc1
Asked: Put the above entries in order of falling IC50. Enter labels, ranked according to the request.
Given back: B, D, C, A

* * *

- Assay Procedure: Half-life in rat
- Format: ADME, organism-based
- Particulars: in vivo
Observable: half-life (h)
Response body: numeric value in h, unit text excluded.

Asked: // fetch half-life given entry CCCC[C@H](NC(=O)OC(C(C)C)C(C)C)C(=O)C(=O)N[C@H](C)c1ccccc1
Given back: 4.83

* * *

- Measured Target: Cathepsin K (Homo sapiens)
pIC50: −log10 of the molar value.
Observable: pIC50

- CCCC[C@H](NC(=O)OC(C)(C)C)C(=O)C(N)=O: 5.23

(A) CCCC[C@H](NC(=O)OC(C)(C)C)C(=O)C(=O)N[C@@H](C)c1ccccc1
(B) CCCC[C@H](NC(=O)OC(C)(C)C)C(=O)C(=O)N[C@H](C)c1ccccc1
(C) CCCC[C@H](NC(=O)OC(C)(C)C)C(=O)C(=O)NCC
Asked: Parameters: sort_field (pIC50), sort_dir (desc). Reply format: the labels, ordered as requested.
Given back: B, A, C
(B: 5.92, A: 5.38, C: 4.74)

* * *

- Assay Procedure: Vss in rat
- Assay type: ADME, organism-based
- Particulars: in vivo, read-out: Vss
Observable: Vd (L/kg)
Express it in L/kg; write the number only.

Asked: Give a short answer stating reported Vd for CCCC[C@H](NC(=O)OC(C(C)C)C(C)C)C(=O)C(=O)N[C@H](C)c1ccccc1 .
Given back: 1.9

* * *

- Assay Procedure: Oral bioavailability in rat
- Type: ADME, organism-based
- Particulars: in vivo
Observable: bioavailability (%)
Give the value in % but do not write % after it.

Asked: Return the recorded bioavailability value; entry: CCCC[C@H](NC(=O)OC(C(C)C)C(C)C)C(=O)C(=O)N[C@H](C)c1ccccc1
Given back: 3
